Value source: PubChem BioAssay (NCI)

- System: HCT-116 colon
- method: NCI tumour cell line growth inhibition, 48 h
readout: TGI (µM)
Output spec: scalar in µM, unitless text.

The following compounds have reported results that may help.
Please report the recorded TGI for CC1(C)N=C(N)N=C(N)N1c1ccc(CCc2ccc(Cl)cc2S(=O)(=O)F)c(Cl)c1 . 16.2

So what's the measured TGI for this one? CSc1n(Cc2ccc3ccccc3c2)c(C)c[n+]1Cc1ccc2ccccc2c1 1.86

Which TGI value is on record for CN[C@@H]1C[C@H]2O[C@@](C)([C@@H]1OC)n1c3ccccc3c3c4c(c5c6ccccc6n2c5c31)C(=O)N[C@H]4O ? 1.89

# evaluate next
// TGI lookup, key: COc1ccc(C2=Nc3c/c(=C\c4c(O)[nH]c5ccc(Cl)cc45)ccc3=N2)cc1 3.1

---

molecules and their reported TGI
- Tested on: UACC-62 melanoma
- method: NCI tumour cell line growth inhibition, 48 h

Look over these answered cases.
Consider the molecule shown here: COc1ccc2oc(=Nc3ccc(F)cc3)c(C(N)=O)cc2c1 What is its recorded TGI? > 100 µM

Entry COc1ccc2c(c1)c1nc3cc(C)c(C)cc3nc1n2CCN(C)C : reported TGI = ? 2.48 µM

New cases:
Given the entry CCCCCCCC(=O)OCC(C[As](=O)(O)O)OC(=O)CCCCCCC (stereo not drawn) , report its measured TGI. 27 µM

# query: TGI of entry COc1ccc(N=N/C(=N/NC(=O)c2cc(Cl)ccc2C(=O)c2ccccc2)c2ccc(N(CCC#N)CCC#N)cc2C)cc1 51.8 µM

// returns reported TGI for input COc1cc(C=O)c(-c2cc3c(cc2C2(C)OCCS2)OCO3)c(OC)c1OC (stereo not drawn) 61.4 µM

Please report the recorded TGI for COC(=O)c1ccc(NC(=O)c2cc(OC)c(OC)c(OC)c2)cc1 . > 100 µM

Look up TGI: O=C1c2cc(-c3ccccc3)ccc2-c2c1c1ccc([N+](=O)[O-])cc1c(=O)n2CCCBr > 50 µM

Endpoint output: TGI of COc1ccc(-c2nnc(CCCCCCCCc3nnc(-c4ccc(OC)cc4)n3N)n2N)cc1 . Value? > 100 µM

Fill in: TGI of NC(=O)C(=Cc1ccc(CP(=O)(O)O)cc1)C(N)=O is ___ > 100 µM

Please report the recorded TGI for O=[N+]([O-])c1ccc2nc(/C=C(\O)c3ccccc3)c(/C=C(\O)c3ccccc3)nc2c1 . 18.8 µM

I am curious: what TGI value has been reported for CCOC(=O)C1C[C@H]2CO[C@H](c3ccccc3)N2C1=O (stereo partly drawn) ? > 100 µM

---

- Tested on: SF-295 CNS
- method: NCI tumour cell line growth inhibition, 48 h
readout: TGI

Study these solved cases before continuing.
Return reported TGI; argument: COc1ccc2c(c1)CC1(O)COc3cc(OC)ccc3C1O2 (stereo unspecified) > 100 µM

Can you look up the measured TGI of CNc1ncnc2c1nnn2C for me? > 100 µM

Endpoint output: TGI of COc1nc2ccc(CNc3ccc(C(=O)O)cc3)cc2nc1OC . Value? > 10 µM

Look up TGI for this compound: CC1=Nc2c(C#N)ncn2N=C(C)C1 > 100 µM

Entry O=C1c2cc(-c3ccccc3)ccc2-c2c1c1ccc([N+](=O)[O-])cc1c(=O)n2CCCBr has what TGI? > 50 µM

Fill in: TGI of C[C@@H](NC(=O)[C@@H](CC(=O)N1CCC(N2CCCCC2)CC1)N1C(=O)[C@@H](N2C(=O)OC[C@@H]2c2ccccc2)[C@H]1/C=C/c1cccc(Cl)c1)c1ccccc1 is ___ 3.91 µM

Fill in: TGI of N#CCSc1c(-c2ccccc2)c(=O)n(-c2ccccc2)c(=S)n1-c1ccccc1 is ___ > 100 µM

I'd like to know its TGI. The compound in question is CCNc1cc2c3c(c1)CCCN3CCC2 32.3 µM

Recorded TGI for Cc1cc([N+](=O)[O-])ccc1NS(=O)(=O)c1cc(Cl)ccc1Cl , please? 9.26 µM

Looking for the measured TGI of Cn1c(/C=C(\C#N)c2cccc(C(F)(F)F)c2)nc2c(N3CCOCC3)nc(Cl)nc21 , can you help? 3.93 µM

***
For the compound shown here, COC(=O)C(Cc1ccccc1)NC(=O)c1ccc(CNC(=S)NCc2cccc(CNC(=S)NCc3ccccc3)c2)cc1 (stereo unspecified) , give the reported TGI. > 62.5 µM

Look up TGI for this compound: COc1ccc2nc3cc([N+](=O)[O-])ccc3c(NCCCN(CCO)CCO)c2c1 22.3 µM

Bench note: what TGI did CSC1(SC)N2Cc3ccccc3N=C2C1(c1ccccc1)c1ccccc1 show? > 100 µM
